Data origin: ChEMBL document CHEMBL1130825

Tested on: HCT-15
protocol details: In vitro cytotoxicity against human colon cancer HCT 15 cell line
Assay type: functional
# GI50 listing for each entry below
Quick reminder: number only, in µM, skip the unit.

See these solved cases before continuing.
COC(=O)[C@@H]1C(c2cc(OC)c(OC)c(OC)c2)c2cc3c(cc2[C@@H]2OC(=O)OC[C@@H]12)OCO3 (some centres undefined)    10
CCCCOC(=O)[C@@H]1[C@H](c2cc(OC)c(OC)c(OC)c2)c2cc3c(cc2[C@H](O)[C@H]1CO)OCO3    2
CCCOC(=O)[C@@H]1C(c2cc(OC)c(OC)c(OC)c2)c2cc3c(cc2[C@@H]2OC(=O)OC[C@@H]12)OCO3 (some centres undefined)    0.3

Summary for this molecule, CCOC(=O)[C@@H]1[C@H](c2cc(OC)c(OC)c(OC)c2)c2cc3c(cc2C(=O)[C@H]1CO)OCO3 : GI50 is 3.99

---

System: HCT-15
protocol details: In vitro cytotoxicity against human colon cancer HCT 15 cell line
Assay type: functional
measured parameter: GI50 (nM)
Quick reminder: number only, in nM, skip the unit.

See these solved cases before continuing.
COC(=O)[C@@H]1[C@H](c2cc(OC)c(OC)c(OC)c2)c2cc3c(cc2C(=O)[C@H]1CO)OCO3    5710
COC(=O)[C@@H]1[C@H](c2cc(OC)c(O)c(OC)c2)c2cc3c(cc2[C@@H]2OC(=O)OC[C@@H]12)OCO3    400
COC(=O)[C@@H]1[C@H](c2cc(OC)c(OC)c(OC)c2)c2cc3c(cc2[C@H](O)[C@H]1CO)OCO3    40

For the next question, use this compound.
Summary for this compound, COC(=O)[C@@H]1[C@H](c2cc(OC)c(O)c(OC)c2)c2cc3c(cc2[C@H](O)[C@H]1CO)OCO3 : GI50 is 1020

---

System: HCC 2998
protocol details: In vitro cytotoxicity against human colon cancer HCC 2998 cell line
Type: functional
measured parameter: GI50 (nM)
Quick reminder: number only, in nM, skip the unit.

See these solved cases before continuing.
CCOC(=O)[C@@H]1[C@H](c2cc(OC)c(O)c(OC)c2)c2cc3c(cc2[C@@H]2OC(=O)OC[C@@H]12)OCO3    1500
CCCCOC(=O)[C@@H]1[C@H](c2cc(OC)c(OC)c(OC)c2)c2cc3c(cc2[C@H](O)[C@H]1CO)OCO3    1800
CCCOC(=O)[C@@H]1[C@H](c2cc(OC)c(OC)c(OC)c2)c2cc3c(cc2[C@H](O)[C@H]1CO)OCO3    1700
COc1cc([C@@H]2c3cc4c(cc3[C@H](O)[C@@H](CO)[C@@H]2C(=O)O)OCO4)cc(OC)c1OC    55000

Summary for this molecule, COc1cc([C@@H]2c3cc4c(cc3[C@H](O)[C@H]3COC(=O)[C@H]23)OCO4)cc(OC)c1OC [PODOFILOX] : GI50 is 200

Summary for this molecule, COC(=O)[C@@H]1[C@H](c2cc(OC)c(O)c(OC)c2)c2cc3c(cc2[C@H](O)[C@H]1CO)OCO3 : GI50 is 800

Summary for this molecule, CCOC(=O)[C@@H]1[C@H](c2cc(OC)c(OC)c(OC)c2)c2cc3c(cc2C(=O)[C@H]1CO)OCO3 : GI50 is 5630

Summary for this molecule, CCOC(=O)[C@@H]1C(c2cc(OC)c(OC)c(OC)c2)c2cc3c(cc2[C@@H]2OC(=O)OC[C@@H]12)OCO3 (some centres undefined) : GI50 is 8000

Summary for this molecule, CCOC(=O)[C@@H]1[C@H](c2cc(OC)c(O)c(OC)c2)c2cc3c(cc2[C@H](O)[C@H]1CO)OCO3 : GI50 is 1300
